TARGET_OR_SYSTEM: Putative P2Y purinoceptor 10 (Mus musculus, UniProt Q8BFU7)
Sequence (Q8BFU7 whole entry): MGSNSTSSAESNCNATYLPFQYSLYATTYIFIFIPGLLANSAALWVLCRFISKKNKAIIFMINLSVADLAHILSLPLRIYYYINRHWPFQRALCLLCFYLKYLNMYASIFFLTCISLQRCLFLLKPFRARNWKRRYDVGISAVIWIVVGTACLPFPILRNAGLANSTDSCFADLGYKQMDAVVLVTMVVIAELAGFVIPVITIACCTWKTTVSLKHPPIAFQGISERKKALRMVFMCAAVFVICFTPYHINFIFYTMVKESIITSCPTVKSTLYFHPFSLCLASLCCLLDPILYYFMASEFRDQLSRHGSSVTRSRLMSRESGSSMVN
ASSAY_PROTOCOL: Agonist activity at mouse LPS2/P2Y10 transfected in HEK293-A cells co-transfected with AP-TGFalpha assessed as AP-TGFalpha release by TGFalpha shedding assay
Format: functional, cell-based
MEASUREMENT_PARAMETERS: read-out: EC50
pEC50: −log10 of the molar value.
MEASUREMENT_LABEL: pEC50

>>> df
                                   compound  recorded_number
0  N[C@@H](COP(=O)(O)OCCCOC(=O)CCc1ccccc1Oc1ccccc1-c1ccccc1)C(=O)O             6.05

A: Cc1cccc(Oc2ccccc2CCC(=O)OCCCOP(=O)(O)OC[C@H](N)C(=O)O)c1
B: N[C@@H](COP(=O)(O)OCCCCOC(=O)CC(=O)CC(=O)Cc1ccccc1Oc1ccc(-c2ccccc2)cc1)C(=O)O
Could you tell me which of these two has the smaller pEC50 figure? First: A Second: B Write the label of whichever entry you select. A

a: N[C@@H](COP(=O)(O)OCCCOC(=O)CCc1ccccc1Oc1ccc(-c2ccccc2-c2ccccc2)cc1)C(=O)O
b: CC(C)(C)c1ccc(-c2cccc(COc3ccccc3CCC(=O)OCCCOP(=O)(O)OC[C@H](N)C(=O)O)c2)cc1
Could you tell me which of these two has the smaller pEC50 figure? First: a Second: b Write the label of whichever entry you select. b
(b: 7.46, a: 8.17)

P: CC(C)(C)c1ccc(Oc2ccccc2CCC(=O)OCCCOP(=O)(O)OC[C@H](N)C(=O)O)cc1
Q: N[C@@H](COP(=O)(O)OCCCOC(=O)CCc1ccccc1Oc1cc(-c2ccccc2)cc(-c2ccccc2)c1)C(=O)O
Rank P against Q by their pEC50 values and give the higher one. Write the label of whichever entry you select. Q
(Q: 7.64, P: 7.17)

A: N[C@@H](COP(=O)(O)OCCCOC(=O)CCc1ccccc1OCc1cccc(-c2ccccc2)c1)C(=O)O
B: Cc1cc(C)cc(-c2cccc(COc3ccccc3CCC(=O)OCCCOP(=O)(O)OC[C@H](N)C(=O)O)c2)c1
Rank A against B by their pEC50 values and give the higher one. Write the label of whichever entry you select. A
(A: 8.24, B: 7.34)

* * *

TARGET_OR_SYSTEM: Putative P2Y purinoceptor 10 (Mus musculus, UniProt Q8BFU7)
ASSAY_PROTOCOL: Agonist activity at mouse LPS2/P2Y10 transfected in HEK293-A cells co-transfected with AP-TGFalpha assessed as AP-TGFalpha release by TGFalpha shedding assay
Type: functional, cell-based
MEASUREMENT_PARAMETERS: read-out: EC50
MEASUREMENT_LABEL: EC50 (nM)

A: N[C@@H](COP(=O)(O)OCCCOC(=O)CCc1ccccc1Oc1ccc(-c2cccc(-c3ccccc3)c2)cc1)C(=O)O
B: CC(C)(C)c1ccc(-c2ccc(Oc3ccccc3CCC(=O)OCCCOP(=O)(O)OC[C@H](N)C(=O)O)cc2)cc1
C: Cc1ccccc1Oc1ccccc1CCC(=O)OCCCOP(=O)(O)OC[C@H](N)C(=O)O
Please list these in order of increasing EC50. Thank you! Order the labels as requested and give them as your answer. A, B, C
(A: 1 nM, B: 3 nM, C: 140 nM)
